Hey, just so you know, these numbers are from paper PMC8119466.

SUBJECT_OF_TEST: recombinant PRL-2 (Homo sapiens)
Construct: 6xHis (N, cleaved yes); made in house; host or cells: E. coli One Shot BL21 Star
Sequence (Q12974 whole entry): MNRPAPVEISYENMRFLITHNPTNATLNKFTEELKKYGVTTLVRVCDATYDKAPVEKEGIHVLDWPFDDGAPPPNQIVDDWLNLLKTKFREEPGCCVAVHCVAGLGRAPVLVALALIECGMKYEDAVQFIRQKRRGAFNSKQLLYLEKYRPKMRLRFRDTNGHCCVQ
EXPERIMENT_SUMMARY: In vitro phosphatase assay (DiFMUP hydrolysis), PRL-2;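 also: PRL-2 activity read as DiFMUP hydrolysis after 20 min at room temperature with drug, enzyme first pre-reduced at 4 °C for 20 min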
Type: biochemical
EXPERIMENTAL_CONDITIONS: FDA-approved drug screen; compared to DMSO
PROPERTY: % Phosphatase Activity (compared to DMSO) PRL-2 (%)
Entry rule: numbers only, all in %.

Checklist item: % Phosphatase Activity (compared to DMSO) PRL-2 tested on recombinant PRL-2 (Homo sapiens), entry OCC(O)CN1CCN(c2ccccc2)CC1 (centres unmarked) [Dropropizine] , value? 110

Follow-up entry: C=CC(=O)N1CCC(Oc2cc3c(Nc4ccc(Cl)c(Cl)c4F)ncnc3cc2OC)CC1 [Poziotinib (HM781-36B)] 80

Follow-up entry: O.S=c1[nH]cnc2nc[nH]c12 [6-Mercaptopurine (6-MP) Monohydrate] 108

Follow-up entry: CC(=O)O[C@H]1C(=O)[C@@]2(C)[C@H]([C@H](OC(=O)c3ccccc3)[C@]3(O)C[C@H](OC(=O)[C@H](O)[C@@H](NC(=O)c4ccccc4)c4ccccc4)C(C)=C1C3(C)C)[C@]1(OC(C)=O)CO[C@@H]1C[C@@H]2O [Paclitaxel] 97

Follow-up entry: COC(=O)Nc1nc2cc(C(=O)c3ccc(F)cc3)ccc2[nH]1 [Flubendazole] 103

---

SUBJECT_OF_TEST: recombinant PRL-1 (Homo sapiens)
Construct: 6xHis (N, cleaved yes); made in house; host or cells: E. coli One Shot BL21 Star
Sequence (Q93096 whole entry): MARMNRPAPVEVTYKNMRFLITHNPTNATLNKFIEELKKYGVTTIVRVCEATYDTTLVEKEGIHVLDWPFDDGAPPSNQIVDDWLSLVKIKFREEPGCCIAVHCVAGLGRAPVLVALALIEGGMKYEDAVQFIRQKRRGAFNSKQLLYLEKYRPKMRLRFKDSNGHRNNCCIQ
EXPERIMENT_SUMMARY: In vitro phosphatase assay (DiFMUP hydrolysis), PRL-1; also: test concentration or dose not given here
Type: biochemical
EXPERIMENTAL_CONDITIONS: FDA-approved drug screen; compared to DMSO
Counter-ions that a name gives are not always drawn. Residues, ends and D or L forms follow the SMILES beside them.
Entries and their measured % Phosphatase Activity (compared to DMSO) PRL-1 follow.
Entry rule: numbers only, all in %.

Please review the entries below; each comes with its answer.
{"MOLECULE": "CC(C)N(CCC(C(N)=O)(c1ccccc1)c1ccccn1)C(C)C (stereo not shown) [Disopyramide Phosphate]", "SUBJECT_OF_TEST": "recombinant PRL-1 (Homo sapiens)", "OBSERVED_MEASUREMENT": 94}
{"MOLECULE": "CCN[C@@H]1C[C@H](N)[C@@H](O[C@H]2OC(CN)=CC[C@H]2N)[C@H](O)[C@H]1O[C@H]1OC[C@](C)(O)[C@H](NC)[C@H]1O.CCN[C@@H]1C[C@H](N)[C@@H](O[C@H]2OC(CN)=CC[C@H]2N)[C@H](O)[C@H]1O[C@H]1OC[C@](C)(O)[C@H](NC)[C@H]1O.O=S(=O)(O)O.O=S(=O)(O)O.O=S(=O)(O)O.O=S(=O)(O)O.O=S(=O)(O)O [Netilmicin Sulfate]", "SUBJECT_OF_TEST": "recombinant PRL-1 (Homo sapiens)", "OBSERVED_MEASUREMENT": 86}
{"MOLECULE": "C[C@H]1C[C@H]2[C@@H]3CCC4=CC(=O)C=C[C@]4(C)[C@@]3(F)[C@@H](O)C[C@]2(C)[C@@]1(O)C(=O)CO", "SUBJECT_OF_TEST": "recombinant PRL-1 (Homo sapiens)", "OBSERVED_MEASUREMENT": 95}
{"MOLECULE": "N=C(N)NC(=O)c1nc(Cl)c(N)nc1N [Amiloride HCl]", "SUBJECT_OF_TEST": "recombinant PRL-1 (Homo sapiens)", "OBSERVED_MEASUREMENT": 234}
{"MOLECULE": "COC(=O)[C@H](Cc1ccccc1)NC(=O)[C@@H](N)CC(=O)O [Aspartame] (H-Asp-Phe-OMe)", "SUBJECT_OF_TEST": "recombinant PRL-1 (Homo sapiens)", "OBSERVED_MEASUREMENT": 92}
{"MOLECULE": "CCCCc1ncc(/C=C(\\Cc2cccs2)C(=O)O)n1Cc1ccc(C(=O)O)cc1 [Eprosartan Mesylate]", "SUBJECT_OF_TEST": "recombinant PRL-1 (Homo sapiens)", "OBSERVED_MEASUREMENT": 89}

For the molecule shown here, COc1c(N2C[C@@H]3CCCN[C@@H]3C2)c(F)cc2c(=O)c(C(=O)O)cn(C3CC3)c12 [Moxifloxacin HCl] , give the reported % Phosphatase Activity (compared to DMSO) PRL-1. 562
